# test_description: Restrictive medium S. cerevisiae growth inhibition, OD615, pilot screen of yeast lifespan reduction project, restrictive growth control (AID 706);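 note: modified DeaD lifespan yeast strain shifted to restrictive glucose medium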
# particulars: OD615, 48 h, at 10 µM, active compounds read high
So I've got a bunch of compounds here, and I need their growth inhibition values.
Give bare numbers, in %.

Cc1ccccc1CSc1nnc(Cn2c(=O)sc3ccccc32)n1C    11.4

Dear colleague, could you send me growth inhibition for each of the items below? Thanks.
1. O=C(Cn1ncc2c(=O)oc3ccccc3c21)N1CCC(N2CCCCC2)CC1
2. CSc1oc(-c2ccc(F)cc2)nc1S(=O)(=O)c1ccc(F)cc1

1: 1.36; 2: -6.25
